Values were extracted from PubChem BioAssay (EPA / NIEHS).

Target: Estrogen receptor (Homo sapiens) + Estrogen receptor beta (Homo sapiens) (UniProt P03372+Q92731)
Sequence (P03372 whole entry, looked up, the tested form may be a part): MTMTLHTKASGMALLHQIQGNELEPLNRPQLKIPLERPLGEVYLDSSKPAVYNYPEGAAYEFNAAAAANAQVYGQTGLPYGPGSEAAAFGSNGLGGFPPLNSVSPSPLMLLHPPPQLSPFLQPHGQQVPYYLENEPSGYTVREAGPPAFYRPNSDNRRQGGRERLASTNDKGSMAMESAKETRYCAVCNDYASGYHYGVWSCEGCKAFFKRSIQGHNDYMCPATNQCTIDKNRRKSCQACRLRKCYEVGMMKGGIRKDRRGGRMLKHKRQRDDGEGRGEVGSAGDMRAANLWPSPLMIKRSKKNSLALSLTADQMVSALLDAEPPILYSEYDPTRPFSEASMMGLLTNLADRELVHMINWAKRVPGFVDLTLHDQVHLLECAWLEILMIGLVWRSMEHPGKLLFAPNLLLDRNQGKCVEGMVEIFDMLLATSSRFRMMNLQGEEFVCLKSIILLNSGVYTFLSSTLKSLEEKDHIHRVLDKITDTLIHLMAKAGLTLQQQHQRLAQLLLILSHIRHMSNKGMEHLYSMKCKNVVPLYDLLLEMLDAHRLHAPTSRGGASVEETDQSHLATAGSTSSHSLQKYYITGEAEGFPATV
Sequence (Q92731 whole entry, looked up, the tested form may be a part): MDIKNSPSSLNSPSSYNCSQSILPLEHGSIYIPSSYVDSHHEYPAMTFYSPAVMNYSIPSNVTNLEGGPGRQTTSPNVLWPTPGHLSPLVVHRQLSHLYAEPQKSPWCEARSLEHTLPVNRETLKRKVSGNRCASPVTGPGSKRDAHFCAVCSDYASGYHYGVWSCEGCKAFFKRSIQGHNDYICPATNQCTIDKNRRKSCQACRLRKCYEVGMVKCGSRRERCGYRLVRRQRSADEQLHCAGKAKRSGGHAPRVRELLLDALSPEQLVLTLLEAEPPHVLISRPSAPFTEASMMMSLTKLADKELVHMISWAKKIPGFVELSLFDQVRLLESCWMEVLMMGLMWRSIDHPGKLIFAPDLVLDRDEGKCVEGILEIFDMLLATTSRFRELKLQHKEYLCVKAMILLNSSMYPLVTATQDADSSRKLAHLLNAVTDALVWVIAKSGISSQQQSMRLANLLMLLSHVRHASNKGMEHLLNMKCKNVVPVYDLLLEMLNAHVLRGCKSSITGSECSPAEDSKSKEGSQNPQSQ
Assay: OT_ER_ERaERb_1440: Odyssey Thera (OT) 24-hour HEK293T Protein-Complementation Assay for Estrogen Receptor-alpha/-beta Homodimer (AID 2283356);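 note: heteromer of ER alpha and ER beta binding domains; hits raise reporter fluorescence and both agonists and antagonists give an increase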
Method: OT_ER_ERaERb_1440 is a cell-based assay that uses HEK293T, a human kidney cell line, with measurements taken at 24 hours after chemical dosing in a 384-well plate.OT_ER_ERaERb_1440 is one of one assay component(s) measured or calculated from the OT_ER_ERaERb_1440 assay. […] This assay endpoint, OT_ER_ERaERb_1440, was analyzed in the positive analysis fitting direction relative to DMSO as the negative control and baseline of activity. […]
Inconclusive results are not listed. Activity calls are given as the source filed them. Rule for the calls: active = hit-call score of the fitted dose curve at least 0.9, where 1 is the maximum; inconclusive = response in the unintended direction; inactive = score below 0.9.
Just give me one of these, please: YES = active, NO = inactive

Check out these entries, answers already filled in.
C=CCOC(=O)c1ccc(C(=O)OCC=C)c(C(=O)OCC=C)c1 | NO
CCOC(=O)c1ccccc1C | NO
COc1ccc(C(=O)c2ccccc2)c(O)c1 | YES
CCCCCCCOC(=O)c1ccc(O)cc1 | YES
COc1cc(O)c(C(=O)c2ccccc2)cc1S(=O)(=O)O | NO

In this assay, the call recorded for N#Cc1ccc(C(c2ccc(C#N)cc2)n2cncn2)cc1 was what?
NO

In this assay, the call recorded for CCCCNS(=O)(=O)c1ccccc1 was what?
NO

In this assay, the call recorded for CC(C)c1ccc(O)c(C(C)C)c1 was what?
NO

* * *

Read-out: Interleukin-1 alpha (IL1a), IL1A (gene 3552)
Assay: BSK_BE3C_IL1a: BioMAP Diversity Plus: BE3C Assay for Interleukin-1 alpha (IL1a) Biomarker Activity (AID 2283016)
Settings: primary human bronchial epithelial cells; actives raise or lower the signal
Activity calls are given as the source filed them. The calls were made as follows: active = hit-call score of the fitted dose curve at least 0.9, where 1 is the maximum; inactive = score below 0.9.
Just give me one of these, please: true (1) = active, false (0) = inactive

Check out these entries, answers already filled in.
C=CC(=O)OCC(C)OCC(C)OCC(C)OC(=O)C=C (centres undefined) | true (1)
C=CC(=O)NC(C)(C)C | false (0)
C1CNCCN1 | false (0)

In this assay, the call recorded for CCCCC1C(=O)N(c2ccccc2)N(c2ccccc2)C1=O was what?
false (0)

In this assay, the call recorded for CCCCCCC=O was what?
false (0)

In this assay, the call recorded for C=C(C)C(=O)OCCCCCCCCCCCC was what?
false (0)

In this assay, the call recorded for COC(OC)(C(=O)c1ccccc1)c1ccccc1 was what?
false (0)

In this assay, the call recorded for CCOC(=O)C1=NN(c2ccc(Cl)cc2Cl)C(C)(C(=O)OCC)C1 (centres undefined) was what?
false (0)

* * *

Test: ATG_RORE_CIS: Attagene CIS-FACTORIAL HepG2 Assay for human RAR-related Orphan Receptor Element (RORE) (AID 2282959)
Conditions: HepG2 Attagene cis-factorial RORE reporter, mRNA; actives raise or lower the signal
Procedure: ATG_CIS is a cell-based, multiplexed-readout assay that uses HepG2, a human liver cell line, with measurements taken at 24 hours after chemical dosing in a 24-well plate.ATG_RORE_CIS is one of 52 assay component(s) measured or calculated from the ATG_CIS assay. […] This assay endpoint, ATG_RORE_CIS, was analyzed with bidirectional fitting relative to DMSO as the negative control and baseline of activity. […]
The source made the active and inactive calls. How the source made its calls: active means hit-call score of the fitted dose curve at least 0.9, where 1 is the maximum; inactive means score below 0.9.
Just give me one of these, please: 1 (yes) = active, 0 (no) = inactive

In this assay, the call recorded for CCCC1CCCC(=O)O1 (stereo not given) was what?
0 (no)

In this assay, the call recorded for CCCCCCCCCCCC(C)=O was what?
0 (no)

In this assay, the call recorded for Nc1ccc(C(=O)O)cc1 was what?
0 (no)

In this assay, the call recorded for CCC(C)N (stereo not given) was what?
0 (no)

* * *

Molecular target: X-box-binding protein 1 (Homo sapiens)
Assay: ATG_Xbp1_CIS: Attagene CIS-FACTORIAL HepG2 Assay for human X-box Binding Protein 1 (XBP1) (AID 2282972)
Settings: HepG2 XBP1 cis-element reporter, Attagene multiplex; actives raise or lower the signal
Calls of active or inactive are those of the source. The calls were made as follows: active = hit-call score of the fitted dose curve at least 0.9, where 1 is the maximum; inactive = score below 0.9.
Just give me one of these, please: active, inactive

Check out these entries, answers already filled in.
Nc1ccnc(=O)[nH]1 | inactive
CC(C)CCCCCOC(=O)CS | inactive
CCCC=C(C=O)CC | inactive
CCCCOCCOC(=O)COc1ccc(Cl)cc1Cl | inactive
O=C(O)CCC(=O)O | inactive
CC(C)OC(=O)c1ccccc1 | inactive
CCOC(=O)OC(=O)OCC | inactive
O=C(O)/C=C/c1ccccc1 | inactive

In this assay, the call recorded for C1CNCCN1 was what?
inactive

In this assay, the call recorded for C=CCOC(=O)c1ccc(C(=O)OCC=C)c(C(=O)OCC=C)c1 was what?
inactive

In this assay, the call recorded for COC(=O)CC(C)CCC=C(C)C (centres undefined) was what?
inactive

In this assay, the call recorded for CC(CCC(=O)O)(c1ccc(O)cc1)c1ccc(O)cc1 was what?
inactive

In this assay, the call recorded for CC(C)=NNC(N)=S was what?
inactive

In this assay, the call recorded for O=C1CCCCC1C1CCCCC1 (centres undefined) was what?
inactive

In this assay, the call recorded for C=CCNCC=C was what?
inactive

In this assay, the call recorded for CCCCC1C(=O)N(c2ccccc2)N(c2ccccc2)C1=O was what?
inactive

In this assay, the call recorded for CC(C)(CO)COC(=O)C(C)(C)CO was what?
inactive

In this assay, the call recorded for CCOB(OCC)OCC was what?
inactive

In this assay, the call recorded for CC=C(C)C=CC=C(C)C was what?
inactive

In this assay, the call recorded for C=CC(=O)OCCCCCCOC(=O)C=C was what?
active

* * *

Target: Retinoic acid receptor alpha (Homo sapiens) (UniProt P10276)
Sequence (P10276 whole entry, looked up): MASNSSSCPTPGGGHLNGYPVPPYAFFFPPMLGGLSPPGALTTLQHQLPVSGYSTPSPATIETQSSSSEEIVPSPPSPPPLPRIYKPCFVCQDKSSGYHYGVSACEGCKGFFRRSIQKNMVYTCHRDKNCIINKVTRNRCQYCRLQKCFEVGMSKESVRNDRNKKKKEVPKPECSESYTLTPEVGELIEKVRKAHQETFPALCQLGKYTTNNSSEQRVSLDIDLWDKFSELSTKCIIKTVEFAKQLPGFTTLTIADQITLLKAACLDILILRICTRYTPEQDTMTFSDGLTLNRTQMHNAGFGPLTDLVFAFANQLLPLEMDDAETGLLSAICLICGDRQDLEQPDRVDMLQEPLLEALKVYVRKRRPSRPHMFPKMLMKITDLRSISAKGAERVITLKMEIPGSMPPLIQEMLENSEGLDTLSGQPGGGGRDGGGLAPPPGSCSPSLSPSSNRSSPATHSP
Experiment: ATG_DR5_RAR_CIS: Attagene CIS-FACTORIAL HepG2 Assay for human Retinoic Acid Receptor Alpha (RARE), DR5 submotif (AID 2282934)
Conditions: HepG2 Attagene cis-factorial RARE DR5 reporter, mRNA; actives raise or lower the signal
Active and inactive are the calls of the source. How the source made its calls: active means hit-call score of the fitted dose curve at least 0.9, where 1 is the maximum; inactive means score below 0.9.
Just give me one of these, please: active, inactive

[Cl][Sc]([Cl])[Cl] | inactive
C=C(C)C(=O)OCC(O)COc1ccc(C(C)(C)c2ccc(OCC(O)COC(=O)C(=C)C)cc2)cc1 (stereo not given) | inactive
Cc1cc(C)n(CO)n1 | inactive
CC(=O)CCC1=C(C)CCCC1(C)C | inactive
CC1(C)CCC[C@]2(C)[C@H]3CC(=O)O[C@]3(C)CC[C@@H]12 | inactive

In this assay, the call recorded for CCCCCCOc1ccc(N)cc1 was what?
inactive

In this assay, the call recorded for CCOB(OCC)OCC was what?
inactive

In this assay, the call recorded for C=CCCCCCCCCC=O was what?
inactive

In this assay, the call recorded for CC(C)c1cccc(C(C)C)c1N was what?
inactive

In this assay, the call recorded for CC(C)(c1ccccc1)c1ccc(Nc2ccc(C(C)(C)c3ccccc3)cc2)cc1 was what?
inactive

In this assay, the call recorded for CC(C)(CO)C(O)C(=O)NCCCO (stereo not given) was what?
inactive

In this assay, the call recorded for CC(C)c1ccc(O)c(C(C)C)c1 was what?
inactive

In this assay, the call recorded for CC=C(C)C(C)=O was what?
active

In this assay, the call recorded for Clc1cccnc1 was what?
inactive

In this assay, the call recorded for c1ccc2cnccc2c1 was what?
inactive

* * *

Read-out: TIMP metallopeptidase inhibitor 2 (TIMP2), TIMP2 (gene 7077)
Test: BSK_KF3CT_TIMP2: BioMAP Diversity Plus: KF3CT Assay for TIMP metallopeptidase inhibitor 2 (TIMP2) Biomarker Activity (AID 2283071)
Details: primary human keratinocytes with fibroblasts; actives raise or lower the signal
Active and inactive are the calls of the source. How the source made its calls: active means hit-call score of the fitted dose curve at least 0.9, where 1 is the maximum; inactive means score below 0.9.
experimental readout: AC50

Some solved entries appear below for comparison.
CC(CCC(=O)O)(c1ccc(O)cc1)c1ccc(O)cc1 | inactive
CC=C(C)C(C)=O | inactive
CCOC(=O)C1=NOC(c2ccccc2)(c2ccccc2)C1 | inactive
CCNc1nc(NC(C)(C)C)nc(OC)n1 | inactive
CC(c1cc(C(C)(C)C)cc(C(C)(C)C)c1O)c1cc(C(C)(C)C)cc(C(C)(C)C)c1O | inactive
CC/C=C\C/C=C\C/C=C\CCCCCCCC(=O)OC | 7.17 µM (active)

I have 8 compounds here; please give me AC50 for each one.
1. CC=C(C)C=CC=C(C)C
2. CC(C)C(=O)OCCc1ccccc1
3. Cc1ccc([N+](=O)[O-])cc1N
4. C=CCCCCCCCCC=O
5. Oc1ccc(/C=C/c2cc(O)cc(O)c2)cc1
6. CC/C=C\CCOC(=O)c1ccccc1O
7. Oc1c(Cl)cc(Cl)c(Cl)c1Cl
8. CCCCCCCCCCCC(C)=O

inactive
inactive
inactive
inactive
8.83 µM (active)
14.7 µM (active)
11.4 µM (active)
3.97 µM (active)
